Field: Liver weight. Provide a value for each of the sequences that follow.
conditions: cynomolgus monkey, in vivo, sc, 40 mg/kg
State the value, then name its unit.

Sample answers from the record:
Reported Liver weight of TTGATTTAATGGTTGC [ISIS 560131] (MOE and (S)-cEt gapmer chemistry, further chemistry not given here) : 58 g

Reported Liver weight of GATTTAATGGTTGCAA (cEt gapmer chemistry, further chemistry not given here) [ISIS 586124] : 58 g

Below: the item to evaluate.
Reported Liver weight of TTGATTTAATGGTTGC [ISIS 579671] (cEt/MOE gapmer chemistry, further chemistry not given here) : 62 g

###

Field: Oligonucleotide concentration, Liver. Provide a value for each of the substances that follow.
settings: cynomolgus monkey, in vivo, sc, 40 mg/kg

Sample answers from the record:
Reported Oligonucleotide concentration, Liver of TGATTTAATGGTTGCA [ISIS 569236] (cEt/MOE gapmer chemistry, further chemistry not given here) : 898 μg/g tissue

Reported Oligonucleotide concentration, Liver of ISIS 584269: antisense compound targeted to human AR (CCTTATGGATGCTGCT; 3-10-3 (S)-cEt gapmer, further chemistry not given here) : 698 μg/g tissue

Reported Oligonucleotide concentration, Liver of TGATTTAATGGTTGCA [ISIS 569221] (cEt/MOE gapmer chemistry, further chemistry not given here) : 966 μg/g tissue

Reported Oligonucleotide concentration, Liver of TTGATTTAATGGTTGC [ISIS 560131] (MOE and (S)-cEt gapmer chemistry, further chemistry not given here) : 793 μg/g tissue

Reported Oligonucleotide concentration, Liver of ISIS 584468: antisense compound targeted to human AR (CATTGTACTATGCCAG; 3-10-3 (S)-cEt gapmer, further chemistry not given here) : 474 μg/g tissue

Below: the item to evaluate.
Reported Oligonucleotide concentration, Liver of TTGATTTAATGGTTGC [ISIS 579671] (cEt/MOE gapmer chemistry, further chemistry not given here) : 871 μg/g tissue

###

Field: percent inhibition of AR, 3000.0 nM. Provide a value for each of the substances that follow.
system: AR mRNA; assay: Dose-dependent antisense inhibition of human AR in HuVEC cells (electroporation, qRT-PCR RTS3559, IC50); type: cell-based; details: Table 32; 3000.0 nM, HuVEC, electroporation, approximately 16 hours
Oligonucleotides are written 5' to 3', each unit as a sugar letter and its base; * is a phosphorothioate linkage, no mark a phosphodiester; rarer units and linkages stand in square brackets, end groups in braces. Plain capitals give the bases only. k = constrained ethyl (cEt); [5mC] = 5-methylcytosine; d = 2'-deoxy (DNA)
Answers are plain numbers, in %.

Reported percent inhibition of AR, 3000.0 nM of 583850 (kG*kG*kA*d[5mC]*dG*d[5mC]*dA*d[5mC]*dA*dG*d[5mC]*dG*dG*kG*kT*kG; antisense) [compound 583850] : 78

I would be grateful if you could provide percent inhibition of AR, 3000.0 nM for each of the following entries.
1. 583864 (k[5mC]*kA*kG*dT*dG*d[5mC]*dT*d[5mC]*dT*dT*dG*d[5mC]*d[5mC]*kT*kG*k[5mC]; antisense) [compound 583864]
2. 583855 (k[5mC]*k[5mC]*kT*dT*dT*dG*d[5mC]*dA*dT*dT*d[5mC]*dG*dG*k[5mC]*k[5mC]*kA; antisense) [compound 583855]
3. 583880 (kT*kT*kT*dG*dG*dT*dG*dT*dA*dA*d[5mC]*d[5mC]*dT*k[5mC]*k[5mC]*k[5mC]; antisense) [compound 583880]
4. 583749 (antisense kA*kG*kG*dT*dG*d[5mC]*dT*dG*d[5mC]*dG*d[5mC]*dT*d[5mC]*kG*k[5mC]*kG) [compound 583749]

1: 85; 2: 91; 3: 92; 4: 87

Reported percent inhibition of AR, 3000.0 nM of 583871 (kA*kT*kA*d[5mC]*dT*d[5mC]*dA*dG*d[5mC]*dA*dG*dT*dA*kT*k[5mC]*kT; antisense) [compound 583871] : 87
